test: Quantitative High-Throughput drug screen in 47 multiple myeloma cell lines against the NCATS MIPE library collection: MM1S_ATCC cell viability assay (AID 1918980); settings: MM1S myeloma viability, CellTiter-Glo ATP luminescence, 48 h; series mostly up to 45.8 µM; further: nearly all actives have a fitted effect of over 45% in size
Results filed as inconclusive are left out. Calls of active or inactive are those of the source. The call rests on the fitted dose curve; in most records, active means well fitted cell-killing curve with a large enough effect; inconclusive means small, poorly fitted or top-dose-only effect, or effect the other way; inactive means no such curve, though single readings can be large or run the other way.
Write down the outcome that applies. Available outcomes: active, inactive

Below are worked cases with known answers.
>>> assigned_category("O=C(Nc1cc2cc[nH]c2cn1)c1ccccc1")
"active"
>>> assigned_category("CC(=O)NCC(=O)N1[C@H]2CC[C@H]1c1cc(Nc3ncc(C(F)(F)F)c(NC4CCC4)n3)ccc12")
"active"
>>> assigned_category("CCc1cc(C(C)=NOCc2ccc(C3CCCCC3)c(C(F)(F)F)c2)ccc1CN1CC(C(=O)O)C1")
"inactive"

Dear all, I need the recorded test outcome for CCCCCCCCc1ccc(CCC(N)(CO)CO)cc1 , thank you.
active

----------
tested on: Zika virus NS2B-NS3 protease; test: Primary screen GU AMC qHTS for Zika virus inhibitors (AID 1347154); conditions: Zika NS2B-NS3 unlinked protease, AMC fluorogenic substrate; series mostly up to 54.1 µM; further: nearly all actives have a fitted effect of over 70% in size
Results filed as inconclusive are left out. The source made the active and inactive calls. Calls follow the shape of the dose curve; as a rule, active = well fitted inhibition curve with a large enough effect; inconclusive = small, poorly fitted or top-dose-only effect; inactive = flat fitted curve, though single readings scatter.
VALUE TYPE: outcome

// below: answered compounds
>>> result("CCc1c(O)cc(O)c(C(=O)c2ccc(OCCN3CCOCC3)c(OC)c2)c1CC(=O)N(CCOC)CCOC")
"inactive"
>>> result("CC(C)c1cnn2c(NCc3ccccc3)cc(NCCCCCCN)nc12")
"inactive"
>>> result("Cn1cc(C2=C(c3c4n(c5ccccc35)CCC(CN)C4)C(=O)NC2=O)c2ccccc21 (configuration not stated)")
"inactive"
>>> result("COc1cc([C@@H]2c3cc4c(cc3[C@@H](O[C@@H]3O[C@@H]5CO[C@@H](c6cccs6)O[C@@H]5[C@H](O)[C@@H]3O)[C@H]3COC(=O)[C@H]23)OCO4)cc(OC)c1O")
"inactive"
>>> result("Cc1cnn(C)c1C(=O)Nc1cc(Nc2ccc3c(C=Cc4ccccn4)n[nH]c3c2)ccc1F")
"inactive"

Indicate its recorded outcome; the compound in question is Cn1cc(-c2ccc3ncc(Cc4ccc5ncccc5c4)n3n2)cn1
inactive

----------
test: qHTS Screen of the MIPE 4.0 Collection Against Ewings Sarcoma (EW8) (AID 1259255); details: EW8 Ewing sarcoma viability, CellTiter-Glo, 48 h; series mostly up to 45.8 µM; further: nearly all actives have a fitted effect of over 35% in size
Results filed as inconclusive are left out. Calls of active or inactive are those of the source. Calls follow the shape of the dose curve; as a rule, active = well fitted inhibition curve with a large enough effect; inconclusive = small, poorly fitted or top-dose-only effect; inactive = no such curve, though single readings can be large or run the other way.
Write down the outcome that applies. Available outcomes: t = active, f = inactive

>>> assigned_category("NC(=O)Nc1sc(-c2ccc(F)cc2)cc1C(N)=O")
"t"
>>> assigned_category("COc1cc2c(cc1OC)[C@@H]1C(=O)c3ccc4c(c3O[C@@H]1CO2)C=CC(C)(C)O4")
"t"
>>> assigned_category("C=C1C(=CC=C2CCC[C@]3(C)[C@@H]([C@H](C)CCCC(C)(C)O)CC[C@@H]23)C[C@@H](O)C[C@@H]1O")
"t"
>>> assigned_category("O=S(=O)(O)CCSSCCS(=O)(=O)O")
"f"
>>> assigned_category("CC(C)Oc1ccc(C(=O)N[C@H](CNC(=O)CN(C)C)Cc2ccc(-c3cn4cccc([C@H](C)O)c4n3)cc2)cc1Cl")
"t"

# ---- query compound ----
Dear all, I need the recorded test outcome for O=C(Nc1ccc(Oc2ccnc3[nH]ccc23)c(F)c1)c1cccn(-c2ccc(F)cc2)c1=O , thank you.
f

----------
Listed compounds paired with reported Potency
test: qHTS of pediatric cancer cell lines to identify multiple opportunities for drug repurposing: Confirmatory screen for NB1643 cells (AID 1347109); conditions: NB1643 neuroblastoma cell viability; series mostly up to 45.9 µM; further: potency means the concentration at half of the fitted maximal effect; nearly all actives have a fitted effect of over 45% in size
Results filed as inconclusive are left out. Calls of active or inactive are those of the source. Calls follow the shape of the dose curve; as a rule, active = well fitted cell-killing curve with a large enough effect; inconclusive = small, poorly fitted or top-dose-only effect, or effect the other way; inactive = no such curve, though single readings can be large or run the other way.

// below: answered compounds
>>> result("COc1cc2ncnc(Nc3cccc(Br)c3)c2cc1OC")
"18.5 µM (active)"
>>> result("COC(=O)C1C2CC3c4[nH]c5cc(OC)ccc5c4CCN3CC2CC(OC(=O)c2cc(OC)c(OC)c(OC)c2)C1OC (centres undefined)")
"5.22 µM (active)"
>>> result("CCS(=O)(=O)Nc1ccc2[nH]c(O)c(C(=Nc3ccc(CN4CCCCC4)cc3)c3ccccc3)c2c1")
"0.0657 µM (active)"

Could you now look at the following compound, please?
Indicate its recorded Potency; the compound in question is COC1=C2C[C@@H](C)C[C@H](OC)[C@@H](O)[C@@H](C)C=C(C)[C@H](OC(N)=O)[C@@H](OC)C=CC=C(C)C(=O)NC(=CC1=O)C2=O
1.31 µM (active)

----------
tested on: Es-2; assay: Primary qHTS to identify gynecologic anti-cancer compounds using libraries of approved drugs and bioactive compounds (AID 1345084); settings: Gynecologic cancer cell panel viability, ATPlite luminescence, 48 h; series mostly up to 57.5 µM; further: nearly all actives have a fitted effect of over 55% in size; further: potency means the concentration at half of the fitted maximal effect
Records with an inconclusive call do not appear. The source made the active and inactive calls. Calls come from the whole dose curve; as a rule, active = well fitted cell-killing curve with a large enough effect; inconclusive = small, poorly fitted or top-dose-only effect, or effect the other way; inactive = flat fitted curve, though single readings scatter.
VALUE TYPE: Potency

// below: answered compounds
>>> result("Cc1ncc(-c2ccnc(Nc3ccc(S(C)(=O)=O)cc3)n2)n1C(C)C")
"10 µM (active)"
>>> result("c1cc(N[C@@H]2CCNC2)nc(-c2cnc3ccc(-c4cn[nH]c4)cn23)c1")
"inactive"
>>> result("CCC[C@H]1C[C@H](C(=O)N[C@@H]([C@@H]2O[C@@H](SC)[C@@H](O)[C@@H](O)[C@@H]2O)[C@H](C)Cl)N(C)C1")
"inactive"
>>> result("CCN(CC)Cc1ccc2cc(COC(=O)Nc3ccc(C(=O)NO)cc3)ccc2c1")
"6.31 µM (active)"
>>> result("CC(C)c1cc(C(C)C)c(CC(=O)NS(=O)(=O)Oc2c(C(C)C)cccc2C(C)C)c(C(C)C)c1")
"inactive"
>>> result("COc1ccc(S(=O)(=O)Nc2cccnc2Nc2ccc(O)cc2)cc1")
"2.24 µM (active)"
>>> result("FC(F)c1nc2ccccc2n1-c1nc(N2CCOCC2)nc(N2CCOCC2)n1")
"14.1 µM (active)"
>>> result("Nc1ccn(C2CO[C@H](CO)O2)c(=O)n1 (stereo not given in full)")
"inactive"
>>> result("O=C(O)c1ccc(Nc2ncc3c(n2)-c2ccc(Cl)cc2C(c2c(F)cccc2F)=NC3)cc1")
"inactive"
>>> result("C[C@H](O)[C@@H]1C(=O)N2C(C(=O)O)=C(S[C@@H]3CN[C@H](CNS(N)(=O)=O)C3)[C@@H](C)[C@@H]12")
"inactive"

Indicate its recorded Potency; the compound in question is CN(C)CC(=O)N1CCC(c2ccc(NC(=O)c3ncc(C#N)[nH]3)c(C3=CCCCC3)c2)CC1
inactive

Indicate its recorded Potency; the compound in question is CCCCC(=O)O[C@]1(C(=O)CO)[C@@H](C)C[C@H]2[C@@H]3CCC4=CC(=O)C=C[C@]4(C)[C@@]3(F)[C@@H](O)C[C@@]21C
inactive

----------
assay: qHTS of pediatric cancer cell lines to identify multiple opportunities for drug repurposing: Primary screen for NB1643 cells (AID 1347099); details: NB1643 neuroblastoma viability, CellTiter-Glo luminescence, 48 h; series mostly up to 46 µM; further: nearly all actives have a fitted effect of over 50% in size
Inconclusive results are not listed. Active and inactive are the calls of the source. Calls come from the whole dose curve; as a rule, active = well fitted cell-killing curve with a large enough effect; inconclusive = small, poorly fitted or top-dose-only effect; inactive = no such curve, though single readings can be large or run the other way.
Write down the outcome that applies. Available outcomes: T = active, F = inactive

Below are worked cases with known answers.
>>> assigned_category("Cc1ccc([N+](=O)[O-])cc1S(=O)(=O)N(C)N=Cc1cnc2ccc(Br)cn12")
"T"
>>> assigned_category("COc1cc2c(cc1OC)[C@@H]1C(=O)c3ccc4c(c3O[C@@H]1CO2)C=CC(C)(C)O4")
"T"
>>> assigned_category("C=CC(=O)Nc1ccc2ncnc(Nc3ccc(OCc4cccc(F)c4)c(Cl)c3)c2c1")
"T"
>>> assigned_category("C[C@@H]1CC[C@@]2(OC1)OC1CC3C4CC=C5CC(O)CCC5(C)C4CCC3(C)C1[C@@H]2C (some centres not stated)")
"F"
>>> assigned_category("CCS(=O)(=O)Nc1ccc2[nH]c(O)c(C(=Nc3ccc(CN4CCCCC4)cc3)c3ccccc3)c2c1")
"T"
>>> assigned_category("CC1(C)[C@H](O[C@H]2O[C@H](C(=O)O)[C@@H](O)[C@H](O)[C@H]2O[C@@H]2O[C@H](C(=O)O)[C@@H](O)[C@H](O)[C@H]2O)CC[C@@]2(C)[C@H]1CC[C@]1(C)[C@H]2C(=O)C=C2[C@H]3C[C@@](C)(C(=O)O)CC[C@]3(C)CC[C@]21C")
"F"

Dear all, I need the recorded test outcome for O=C(Nc1nnc(-c2ccco2)o1)c1cc(-c2ccccc2)nc2ccccc12 , thank you.
T

----------
system: MCC-13; experiment: qHTS assay to identify novel small-molecules to repurpose for Merkel cell carcinoma treatment (AID 1296009); settings: MCC and control cell lines, CellTiter-Glo viability, 72 h; series mostly up to 46 µM; further: nearly all actives have a fitted effect of over 60% in size
Inconclusive results are not listed. Active and inactive are the calls of the source. The call rests on the fitted dose curve; in most records, active means well fitted inhibition curve with a large enough effect; inconclusive means small, poorly fitted or top-dose-only effect; inactive means flat fitted curve, though single readings scatter.
Write down the outcome that applies. Available outcomes: True for active, False for inactive

Below are worked cases with known answers.
>>> assigned_category("O=C(CCCCCCC(=O)Nc1cccnc1)NO")
"True"
>>> assigned_category("N#CNC(=NCCCCCCOc1ccc(Cl)cc1)Nc1ccncc1")
"True"

Dear all, I need the recorded test outcome for C#C[C@]1(O)CC[C@@H]2[C@@H]3CCC4=CC(=O)CC[C@@H]4[C@H]3CC[C@@]21CC , thank you.
False

Dear all, I need the recorded test outcome for CC(=O)N[C@H]1[C@@H]([C@H](O)[C@H](O)CO)OC(C(=O)O)=C[C@@H]1N=C(N)N , thank you.
False

Dear all, I need the recorded test outcome for COc1cc(C)c(C=CC(C)=CC=CC(C)=CC(=O)O)c(C)c1C , thank you.
False

Dear all, I need the recorded test outcome for COc1cc(C(C)C)c(Oc2cnc(NC(CO)CO)nc2N)cc1I , thank you.
False

Dear all, I need the recorded test outcome for CCCCCCCN(CC)CCCC(O)c1ccc(NS(C)(=O)=O)cc1 (centres undefined) , thank you.
False

Dear all, I need the recorded test outcome for CC(C(C)N1CC(=O)NC(=O)C1)N1CC(=O)NC(=O)C1 (centres undefined) , thank you.
False
